Data origin, for the record: PubChem BioAssay

# System: Plasmodium falciparum Sir2 (PF13_0152, Sir2A)
# measurement notes: pfSir2 binders on small-molecule microarrays, primary screen, biochemical, small-molecule microarray, 635 nm fluorescence (AID 1098);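 further: score merges spot fluorescence intensity with its signal-to-noise ratio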
# condition summary: small-molecule microarray binding, fluorescence 635 nm; higher = more signal
attribute measured: composite z-score
Write the number on its own, no unit after it.

Observe how each entry below is paired with its result.
{"structure": "COc1ccc([C@H]2OC[C@@H]3C[C@@H](Cc4ccccc4)C(=O)N32)cc1", "observed measurement": 0.143}
{"structure": "Cc1ccc(S[C@]2(C(=O)NC3CC3)CC(=O)N(Cc3ccccc3)[C@@H]2c2ccc(CO)cc2I)cc1", "observed measurement": 0.562}
{"structure": "C=CCOC(=O)[C@H]1[C@@H]2C(=O)O[C@@H](c3ccccc3)[C@@H](c3ccccc3)N2[C@@H](c2ccc(OCCOC(=O)[C@@H]3C[C@@H]4C(=O)N[C@@H](CCCCNC(C)=O)C(=O)N4[C@@H]3c3ccc(O)cc3)cc2)[C@]12C(=O)Nc1ccccc12", "observed measurement": 1.65}
{"structure": "COCCOC(=O)N1C(=O)[C@@]2(c3cc(C#CC4(O)CCCCCC4)ccc31)[C@H](c1ccccc1OCCO)N1[C@H](c3ccccc3)[C@H](c3ccccc3)OC(=O)[C@H]1[C@@H]2C(=O)N1CCN(c2ncccn2)CC1", "observed measurement": 0.892}
{"structure": "CCOC(=O)C[C@H]1[C@H](OC(=O)c2ccc(C(=O)c3ccccc3)cc2)[C@@H](NC(=O)CC(C)C)c2cc(OCCCO)ccc2N1C(=O)c1ccc2ccccc2n1", "observed measurement": 0.366}

Short answer for O=C(NCCN1CCOCC1)[C@@H]1c2ccccc2C(=O)N(C2CCCCC2)[C@H]1c1ccc(CO)cc1 : composite z-score was 1.06
